# Assay Comment: Oral bioavailability in Sprague-Dawley rat at 50 mg/kg measured for 24 hrs by LC-MS/MS analysis
# Assay type: ADME, organism-based
# Cond: in vivo
Observation Type: bioavailability (%)
One number for each entry, in %.

Looking up CCC(CC)O[C@@H]1C=C(C(=O)O)C[C@H](NC(N)=O)[C@H]1NC(C)=O , I found its bioavailability recorded as 8.8

---

# Assay Comment: in vitro
# Cond: rat, liver microsomes
Observation Type: remaining at 1 h

Looking up CCC(CC)O[C@@H]1C=C(C(=O)O)C[C@H](NC(N)=O)[C@H]1NC(C)=O , I found its remaining at 1 h recorded as 85.5%

Sourced from ChEMBL document CHEMBL4680272
